Target: Recombinant human MASP2 enzyme (fragment corresponding to amino acids 297-686, C-terminal His Tag) (human, UniProt O00187 297-686)
Sequence (O00187 other isoform, or with tags, fused parts or gaps limits assumed): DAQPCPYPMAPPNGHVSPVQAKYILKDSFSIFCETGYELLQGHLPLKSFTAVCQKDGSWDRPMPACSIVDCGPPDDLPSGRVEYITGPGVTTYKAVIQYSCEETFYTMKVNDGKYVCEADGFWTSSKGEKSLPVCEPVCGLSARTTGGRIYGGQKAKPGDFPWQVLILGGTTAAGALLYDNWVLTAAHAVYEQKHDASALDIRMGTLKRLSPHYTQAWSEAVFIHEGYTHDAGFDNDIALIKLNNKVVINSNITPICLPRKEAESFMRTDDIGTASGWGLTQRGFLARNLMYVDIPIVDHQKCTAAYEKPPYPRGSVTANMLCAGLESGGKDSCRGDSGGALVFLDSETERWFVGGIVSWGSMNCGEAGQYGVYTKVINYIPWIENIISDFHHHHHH
Assay: cell-based or functional assay
Numbered stars: 1 amine (or outer) side, 2 acyl side, 3 side chain; on linkers, the order of the positions; unused ones are H or OH. Bridge positions count the residues as written; N and C are the ends. Square brackets hold non-standard residues; d marks the D form. Ends that are not written are not given here. Leu(4-F) = 4-fluoroleucine, CC(C)(F)C[C@H](N[*:1])C(=O)[*:2]; Oic = O=C(O)[C@@H]1C[C@@H]2CCCC[C@@H]2N1; tBuAla = CC(C)(C)C[C@H](N)C(=O)O; Pen = CC(C)(S)[C@H](N)C(=O)O; NMeC = CN[C@@H](CS)C(=O)O; Nva = CCC[C@H](N)C(=O)O
Measured Quantity: human MASP2 IC50 (nM)
The reply should contain only the number, in nM.

input: // query human MASP2 IC50 value for entry AICSRS[Leu(4-F)]PPICIPD-NH2 (disulfide 3-11; N-terminus assumed; SMILES CC[C@H](C)[C@H](NC(=O)[C@H](C)N)C(=O)N[C@H]1CSSC[C@@H](C(=O)N[C@H](C(=O)N2CCC[C@H]2C(=O)N[C@@H](CC(=O)O)C(N)=O)[C@@H](C)CC)NC(=O)[C@H]([C@@H](C)CC)NC(=O)[C@@H]2CCCN2C(=O)[C@@H]2CCCN2C(=O)[C@H](CC(C)(C)F)NC(=O)[C@H](CO)NC(=O)[C@H](CCCNC(=N)N)NC(=O)[C@H](CO)NC1=O) [AIC+SRS-((4-Fluoro)L)-PPIC+IPD-NH2]
output: 300

input: // query human MASP2 IC50 value for entry {Tetrahydro‑2H‑pyran‑3‑ylacetic acid}-ICSRSLP[Oic]I[Pen]IP-NH2 (disulfide 2-10) [(Tetrahydro-2H-pyran-3-ylacetic acid)-IC+SRSLP-(Oic)-I-(Pen)+IP-NH2]
output: 12

input: // query human MASP2 IC50 value for entry [Nva]ICSRSLPPICIPD-NH2 (disulfide 3-11; N-terminus assumed; SMILES CCC[C@H](N)C(=O)N[C@H](C(=O)N[C@H]1CSSC[C@@H](C(=O)N[C@H](C(=O)N2CCC[C@H]2C(=O)N[C@@H](CC(=O)O)C(N)=O)[C@@H](C)CC)NC(=O)[C@H]([C@@H](C)CC)NC(=O)[C@@H]2CCCN2C(=O)[C@@H]2CCCN2C(=O)[C@H](CC(C)C)NC(=O)[C@H](CO)NC(=O)[C@H](CCCNC(=N)N)NC(=O)[C@H](CO)NC1=O)[C@@H](C)CC) [(Nva)-IC+SRSLPPIC+IPD-NH2]
output: 220

input: // query human MASP2 IC50 value for entry AICSRSL[(4aR,6aR,9S,11aS)‑11‑Oxo‑2,3,4,4a,6a,7,8,9,11,11a‑decahydro‑1H‑pyrido(3,2-e)pyrrolo(1,2-a)azepine‑9‑carboxylic acid]ICIPD-NH2 (disulfide 3-10)
output: 72.5

input: // query human MASP2 IC50 value for entry ICSRS[tBuAla]PPI[Pen]IP-OH (disulfide 2-10; N-terminus assumed; SMILES CC[C@H](C)[C@H](N)C(=O)N[C@H]1CSSC(C)(C)[C@@H](C(=O)N[C@H](C(=O)N2CCC[C@H]2C(=O)O)[C@@H](C)CC)NC(=O)[C@H]([C@@H](C)CC)NC(=O)[C@@H]2CCCN2C(=O)[C@@H]2CCCN2C(=O)[C@H](CC(C)(C)C)NC(=O)[C@H](CO)NC(=O)[C@H](CCCNC(=N)N)NC(=O)[C@H](CO)NC1=O) [IC+SRS-((tBu)A)-PPI-(Pen)+IP-OH]
output: 400

input: // query human MASP2 IC50 value for entry AICSRS[tBuAla]P[(2S,3aS,6aS)‑Octahydrocyclopenta(b)pyrrole‑2‑carboxylic acid]I[NMeC]IPD-NH2 (disulfide 3-11)
output: 240
